Overview of recorded MIC for various molecules
- Test system: Pseudomonas aeruginosa A3
- protocol summary: MIC, standard serial dilution method
- Type: cell-based
- recorded conditions: Mueller-Hinton agar, 37° C
Enter your answer as a number in µg/mL; do not include the unit.

molecule: CN[C@@H]1[C@@H](O)[C@@H](O[C@H]2[C@H](N)C[C@H](N)[C@@H](O[C@H]3O[C@H]([C@@H](C)N)CC[C@H]3N)C2(F)F)OC[C@]1(C)O
uom: µg/mL
MIC: 1.56

Data request: So what's the measured MIC for this one? NC[C@H]1O[C@H](O[C@H]2[C@H](O)[C@@H](O[C@H]3O[C@H](CO)[C@@H](O)[C@H](N)[C@H]3O)[C@H](N)C[C@@H]2N)[C@H](N)[C@@H](O)[C@@H]1O [KMB, kanamycin B, reference compound]
Data returned: 1.56

Data request: So what's the measured MIC for this one? CN[C@@H]1[C@@H](O)[C@@H](O[C@H]2[C@H](N)C[C@H](N)[C@@H](O[C@H]3O[C@H](CN)CC[C@H]3N)C2(F)F)OC[C@]1(C)O
Data returned: 0.78

Data request: So what's the measured MIC for this one? NCC[C@H](O)C(=O)N[C@@H]1C[C@H](N)[C@@H](O[C@H]2O[C@H](CN)CC[C@H]2N)C(F)(F)[C@H]1O[C@H]1O[C@H](CO)[C@@H](O)[C@H](N)[C@H]1O
Data returned: 0.78

Data request: So what's the measured MIC for this one? CN[C@@H]1[C@@H](O)[C@@H](O[C@H]2[C@H](N)C[C@H](N)[C@@H](O[C@H]3O[C@H]([C@@H](C)NC)CC[C@H]3N)C2(F)F)OC[C@]1(C)O
Data returned: 6.25

Data request: So what's the measured MIC for this one? NCC[C@H](O)C(=O)N[C@@H]1C[C@H](N)[C@@H](O[C@H]2O[C@H](CN)[C@@H](O)[C@H](O)[C@H]2O)C(F)(F)[C@H]1O[C@H]1O[C@H](CO)[C@@H](O)[C@H](N)[C@H]1O
Data returned: 3.12

Data request: So what's the measured MIC for this one? CN[C@@H]1[C@@H](O)[C@@H](O[C@H]2[C@H](NC(=O)[C@@H](O)CCN)C[C@H](N)[C@@H](O[C@H]3O[C@H]([C@@H](C)NC)CC[C@H]3N)C2(F)F)OC[C@]1(C)O
Data returned: 6.25

Data request: So what's the measured MIC for this one? NC[C@H]1O[C@H](O[C@@H]2[C@@H](N)C[C@@H](N)[C@H](O[C@H]3O[C@H](CO)[C@@H](O)[C@H](N)[C@H]3O)C2(F)F)[C@H](O)[C@@H](O)[C@@H]1O
Data returned: 6.25

Data request: So what's the measured MIC for this one? CN[C@@H]1[C@@H](O)[C@@H](O[C@@H]2[C@@H](O)[C@H](O[C@H]3O[C@H]([C@@H](C)N)CC[C@H]3N)[C@@H](N)C[C@H]2N)OC[C@]1(C)O [Genta-C2, gentamicin C2, reference compound]
Data returned: 0.39

---

Overview of recorded MIC for various compounds
- Tested on: Pseudomonas aeruginosa GN 315
- protocol summary: MIC, standard serial dilution method
- Assay type: cell-based
- recorded conditions: GN315; Pseudomonas aeruginosa GN 315; resistance mechanism AAC(6'); Mueller-Hinton agar, 37° C; read-out: MIC
Enter your answer as a number in µg/mL; do not include the unit.

compound: CN[C@@H]1[C@@H](O)[C@@H](O[C@H]2[C@H](NC(=O)[C@@H](O)CCN)C[C@H](N)[C@@H](O[C@H]3O[C@H]([C@@H](C)N)CC[C@H]3N)C2(F)F)OC[C@]1(C)O
test readout: MIC
uom: µg/mL
val: 100

Data request: So what's the measured MIC for this one? CN[C@@H]1[C@@H](O)[C@@H](O[C@@H]2[C@@H](O)[C@H](O[C@H]3O[C@H]([C@@H](C)NC)CC[C@H]3N)[C@@H](N)C[C@H]2N)OC[C@]1(C)O [Genta-C1, gentamicin C1, reference compound]
Data returned: 6.25
